Attribution: PubChem BioAssay

Experiment: COS7 lysate on small-molecule microarray, probe aHis, 635 nm (AID 1123);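 note: z-score combines 667nm fluorescence intensity with signal-to-noise per printed compound spot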
Details: COS7 cell lysate, fluorescence, higher = more signal
Note to self: values exactly at 0.9 are T. So composite z-score at or above 0.9 is T, below is F.

Study these solved cases before continuing.
[N-]=[N+]=Nc1ccccc1[C@H]1OC(c2ccc(OCCCO)cc2)=N[C@@]1(CCS(=O)(=O)c1ccccc1)C(=O)O : T
O=C1O[C@@H](c2ccccc2)[C@@H](c2ccccc2)N2[C@@H](c3ccc(OCCO)cc3)[C@]3(C(=O)Nc4ccccc43)[C@@H](C(=O)Nc3nc4ccccc4s3)[C@H]12 : T
COCCOC(=O)N1C(=O)[C@@]2(c3cc(C#CCCO)ccc31)[C@H](C(=O)NC[C@H](O)c1ccccc1)[C@H]1C(=O)O[C@H](c3ccccc3)[C@H](c3ccccc3)N1[C@@H]2c1ccc(O)cc1 : F

Identify whether the reported composite z-score of the following compound is 0.9 or greater: N#Cc1ccc(NN2C(C(O)c3ccc([N+](=O)[O-])cc3)C=CC3C(=O)N(c4ccccc4)C(=O)C32)cc1 (centres undefined)
T

Identify whether the reported composite z-score of the following compound is 0.9 or greater: `O=C1O[C@H](c2ccccc2)[C@H](c2ccccc2)N2[C@H]1[C@@H](C(=O)N1CCN(c3ncccn3)CC1)[C@]1(C(=O)Nc3ccccc31)[C@H]2c1ccc(OCCO)cc1`
T

Identify whether the reported composite z-score of the following compound is 0.9 or greater: `O=C1O[C@H](c2ccccc2)[C@H](c2ccccc2)N2[C@H]1[C@@H](C(=O)O)[C@]1(C(=O)Nc3ccc(C#CC4=CCCCC4)cc31)[C@H]2c1ccc(OCCO)cc1`
T

Identify whether the reported composite z-score of the following compound is 0.9 or greater: `CCOC(=O)C[C@H]1[C@H](OC(=O)c2ccccc2-c2ccccc2)[C@@H](NC(=O)c2ccc3ccccc3c2)c2cc(OCCCO)ccc2N1C(=O)c1ccc2ccccc2n1`
F

Identify whether the reported composite z-score of the following compound is 0.9 or greater: `COC(=O)C[C@@H]1C[C@H](C)[C@]2(O1)C(=O)N(Cc1ccccc1)c1ccc(NC(C)=O)cc12`
F
